Target: Nonstructural protein 1 (Influenza A virus, UniProt Q194T2)
Sequence (Q194T2 whole entry): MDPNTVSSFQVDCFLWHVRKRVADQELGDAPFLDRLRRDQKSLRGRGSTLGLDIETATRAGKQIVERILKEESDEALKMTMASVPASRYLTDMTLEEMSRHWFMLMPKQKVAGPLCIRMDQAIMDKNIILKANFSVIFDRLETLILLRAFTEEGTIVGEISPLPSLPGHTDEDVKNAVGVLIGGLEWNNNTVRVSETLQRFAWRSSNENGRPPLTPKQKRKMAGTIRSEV
Format: functional, Influenza A virus (A/California/07/2009(H1N1))
Active and inactive are the calls of the source.
parameter: IC50

COc1ccc(O)c(/C=N/NC(=S)Nc2cccc(S(=O)(=O)N(C)C)c2)c1    8.98 µM (active)
O=C(C[n+]1ccccc1)NN=Cc1cc(Br)cc(Br)c1O    3.68 µM (active)
CCOC(=O)c1cc2c(=Cc3ccc(N(C)C)cc3)c3ccccc3n2[n+]1C    12 µM (active)
Cc1cc(N2CCN(C)CC2)ccc1NC(=O)c1ccc(-c2ccc(Cl)cc2)o1    44 µM (active)
COc1cc(C(=O)Oc2c(CN3CCOCC3)cc(Cl)c3cccnc23)cc(OC)c1OC    19.9 µM (active)

For every listed record, write down its IC50.
1. O=[N+]([O-])c1cc(CN2CCN(c3ccccc3)CC2)c(O)c2ncccc12
2. COc1ccc(Nc2ccc([N+](=O)[O-])c3nonc23)c(OC)c1

[A]
1. 3.42 µM (active)
2. > 100 µM (active)

---

Consider the following compounds; for each one, report its CC50.
Assay: microbe, parasite or virus in culture
Assay type: functional
Details: Mycobacterium tuberculosis
Active and inactive are the calls of the source. The rule behind the calls is not given here.

As a guide, the following entries are already answered.
O=C(/C=C/c1cn(-c2ccccc2)nc1-c1cccnc1)c1ccco1    11.5 µM (active)
CCOc1ccc(-c2cc(CCCC(=O)NCCC(C)C)no2)cc1    > 40 µM (active)
O=C1Nc2ccc(Br)cc2C12NNc1ccccc1O2 (centres undefined)    23.8 µM (active)

[Q] Consider the compound `CC1(C)Cc2c(sc(NC(=O)c3ccc(C(=O)c4ccccc4)cc3)c2C(N)=O)C(C)(C)N1` and give its measured CC50.
[A] 20.7 µM (active)

---

Consider the following compounds; for each one, report its AC50.
Target: Cytochrome P450 2C9 (Homo sapiens)
Sequence (P11712 whole entry): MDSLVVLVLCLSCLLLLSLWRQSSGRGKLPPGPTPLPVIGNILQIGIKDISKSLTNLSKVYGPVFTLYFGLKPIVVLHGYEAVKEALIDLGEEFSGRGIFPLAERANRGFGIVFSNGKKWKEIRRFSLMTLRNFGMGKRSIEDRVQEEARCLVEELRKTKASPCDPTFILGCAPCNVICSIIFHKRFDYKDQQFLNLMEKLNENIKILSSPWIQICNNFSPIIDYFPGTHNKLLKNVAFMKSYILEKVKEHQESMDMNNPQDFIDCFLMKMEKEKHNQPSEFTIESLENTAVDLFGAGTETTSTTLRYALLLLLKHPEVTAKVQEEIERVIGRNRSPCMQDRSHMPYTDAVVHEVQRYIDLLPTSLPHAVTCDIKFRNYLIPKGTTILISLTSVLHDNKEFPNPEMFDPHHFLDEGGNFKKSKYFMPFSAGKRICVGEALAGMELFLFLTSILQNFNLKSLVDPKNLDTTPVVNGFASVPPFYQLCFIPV

CCCCNCCOCCOc1ccc(C)cc1[N+](=O)[O-]    3.16 µM (inconclusive)

For every listed record, write down its AC50.
1. O=C(Cn1cnc2c(oc3ccccc32)c1=O)NCc1ccco1
2. O=C(O)c1ccccc1Nc1ccccc1 [FENAMIC ACID]
3. Cc1cccc(CNc2nc(-c3c(C)noc3C)nc3ccccc23)c1
4. O=C(N1CCOCC1)N1CCN(c2ccccc2)CC1
5. CCOC(=O)c1ccc2nc(C)c(CCC(C)=O)c(Cl)c2c1
6. CCC1OC23CCCCC2C(C#N)(C(=N)O3)C1(C#N)C#N (stereo unspecified)

[A]
1: 8.91 µM (inconclusive); 2: 15.8 µM (inconclusive); 3: 0.631 µM (inconclusive); 4: 4.47 µM (inconclusive); 5: 1 µM (inconclusive); 6: 14.1 µM (inconclusive)

---

Molecular target: Cytochrome P450 3A4 (Homo sapiens, UniProt P08684);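 also: confirmatory qHTS run detecting inhibitors and substrates of CYP3A4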
Sequence (P08684 whole entry): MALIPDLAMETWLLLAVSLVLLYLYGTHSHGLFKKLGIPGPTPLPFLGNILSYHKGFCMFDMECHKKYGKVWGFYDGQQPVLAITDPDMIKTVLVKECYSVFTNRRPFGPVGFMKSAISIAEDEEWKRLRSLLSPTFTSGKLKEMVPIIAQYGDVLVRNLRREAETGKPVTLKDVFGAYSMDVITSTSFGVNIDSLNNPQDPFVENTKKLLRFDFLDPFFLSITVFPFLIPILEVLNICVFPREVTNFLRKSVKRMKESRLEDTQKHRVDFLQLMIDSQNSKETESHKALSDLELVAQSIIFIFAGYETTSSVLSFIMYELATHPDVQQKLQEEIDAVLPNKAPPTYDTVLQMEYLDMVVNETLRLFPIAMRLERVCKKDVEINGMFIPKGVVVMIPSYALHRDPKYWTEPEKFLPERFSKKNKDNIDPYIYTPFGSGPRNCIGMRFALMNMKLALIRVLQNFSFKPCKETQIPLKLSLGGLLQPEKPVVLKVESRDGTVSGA
Conditions: Potency
parameter: AC50

For every listed record, write down its AC50.
1. CC(C)c1c(O)ccc2c1CCC1[C@@](C)(CO)CCC[C@@]21C (some centres not stated)
2. Nc1cccc(N)c1
3. Cn1c(N)c(C(=O)COC(=O)c2ccnc3ccccc23)c(=O)n(C)c1=O

[A]
1: 39.8 µM (inconclusive); 2: 31.6 µM (inconclusive); 3: 15.8 µM (inconclusive)

For every listed record, write down its AC50.
1. Nc1ccc(Cl)c(Cl)c1
2. C=CCSSSCC=C

[A]
1: 25.1 µM (inconclusive); 2: 39.8 µM (inconclusive)

For every listed record, write down its AC50.
1. C=CCOC(=O)C(C(C)=O)C(NC(=O)OC)c1ccc2ccccc2c1 (configuration not stated)
2. C=CCOCC/C=C1/c2ccccc2C(OC)C1C (configuration not stated)

[A]
1 µM (inconclusive)
3.16 µM (inconclusive)
